Sourced from ChEMBL document CHEMBL4330106

- protocol_details: Retention time of the compound by reverse-phase HPLC method
- Format: physicochemical
Square brackets hold non-standard residues; d marks the D form. Peptide text beside a SMILES is read from it. Arg(Me) = CNC(=N)NCCC[C@H](N)C(=O)O; azaGly = NNC(=O)O
API: label(entry) gives TRUE if the entry's Retention_time is strictly smaller than 6 min; on equality or larger values it gives FALSE.

Field: example entries. Status: answers known.
Quick check: does CNC(=N)NCCC[C@H](NC(=O)[C@H](CC(C)C)NC(=O)NNC(=O)[C@H](Cc1ccccc1)NC(=O)[C@H](CO)NC(=O)[C@H](CC(N)=O)NC(=O)[C@H](Cc1c[nH]c2ccccc12)NC(=O)[C@H](N)Cc1ccc(O)cc1)C(=O)N[C@@H](Cc1ccccc1)C(N)=O (H-[dY]WNSF[azaGly]L[Arg(Me)]F-NH2) have Retention_time under 6 min?
TRUE

Quick check: does CNC(=N)NCCC[C@H](NC(=O)[C@H](CC(C)C)NC(=O)NNC(=O)[C@H](Cc1ccccc1)NC(=O)c1c[nH]cn1)C(=O)N[C@@H](Cc1c[nH]c2ccccc12)C(N)=O have Retention_time under 6 min?
TRUE

Quick check: does CNC(=N)NCCC[C@H](NC(=O)[C@H](CC(C)C)NC(=O)NNC(=O)[C@H](Cc1ccccc1)NC(=O)Cc1ccccc1)C(=O)N[C@@H](Cc1c[nH]c2ccccc12)C(N)=O have Retention_time under 6 min?
FALSE

Quick check: does CNC(=N)NCCC[C@H](NC(=O)[C@H](CC(C)C)NC(=O)NNC(=O)[C@H](Cc1ccccc1)NC(=O)c1ccncc1)C(=O)N[C@@H](Cc1c[nH]c2ccccc12)C(N)=O have Retention_time under 6 min?
TRUE

New cases:
Quick check: does CNC(=N)NCCC[C@H](NC(=O)[C@H](CC(C)C)NC(=O)NNC(=O)[C@H](Cc1ccccc1)NC(=O)CCc1c[nH]c2ccccc12)C(=O)N[C@@H](Cc1c[nH]c2ccccc12)C(N)=O have Retention_time under 6 min?
FALSE

* * *

- protocol_details: Stability in Sprague-Dawley rat serum assessed as parent compound remaining at 10 ug/ml measured after 5 mins by LC-MS/MS analysis
- Type: ADME, cell-free
- test_settings: read-out: Stability
Square brackets hold non-standard residues; d marks the D form. Peptide text beside a SMILES is read from it. Arg(Me) = CNC(=N)NCCC[C@H](N)C(=O)O; d4Pal = N[C@H](Cc1ccncc1)C(=O)O; azaGly = NNC(=O)O
endpoint_name: remaining at 5 min, 10 ug/ml (%)
Lab book: enter the figure in %, no units written.

What measured remaining at 5 min, 10 ug/ml goes with CNC(=N)NCCC[C@H](NC(=O)[C@H](CC(C)C)NC(=O)NNC(=O)[C@H](Cc1ccccc1)NC(=O)[C@H](CO)NC(=O)[C@H](CC(N)=O)NC(=O)[C@@H](Cc1ccncc1)NC(=O)[C@H](N)Cc1ccc(O)cc1)C(=O)N[C@@H](Cc1ccccc1)C(N)=O [KISS1-305] (H-[dY][d4Pal]NSF[azaGly]L[Arg(Me)]F-NH2) ?
98

What measured remaining at 5 min, 10 ug/ml goes with CNC(=N)NCCC[C@H](NC(=O)[C@H](CC(C)C)NC(=O)NNC(=O)[C@H](Cc1ccccc1)NC(=O)c1ccccc1)C(=O)N[C@@H](Cc1c[nH]c2ccccc12)C(N)=O ?
98

New cases:
What measured remaining at 5 min, 10 ug/ml goes with CC(C)C[C@H](NC(=O)CNC(=O)[C@H](Cc1ccccc1)NC(=O)[C@H](CO)NC(=O)[C@H](CC(N)=O)NC(=O)[C@H](Cc1c[nH]c2ccccc12)NC(=O)[C@H](CC(N)=O)NC(=O)[C@@H](N)Cc1ccc(O)cc1)C(=O)N[C@@H](CCCNC(=N)N)C(=O)N[C@@H](Cc1ccccc1)C(N)=O ?
1.5

* * *

- target_system: KiSS-1 receptor (Homo sapiens, UniProt Q969F8)
- Sequence (Q969F8 whole entry): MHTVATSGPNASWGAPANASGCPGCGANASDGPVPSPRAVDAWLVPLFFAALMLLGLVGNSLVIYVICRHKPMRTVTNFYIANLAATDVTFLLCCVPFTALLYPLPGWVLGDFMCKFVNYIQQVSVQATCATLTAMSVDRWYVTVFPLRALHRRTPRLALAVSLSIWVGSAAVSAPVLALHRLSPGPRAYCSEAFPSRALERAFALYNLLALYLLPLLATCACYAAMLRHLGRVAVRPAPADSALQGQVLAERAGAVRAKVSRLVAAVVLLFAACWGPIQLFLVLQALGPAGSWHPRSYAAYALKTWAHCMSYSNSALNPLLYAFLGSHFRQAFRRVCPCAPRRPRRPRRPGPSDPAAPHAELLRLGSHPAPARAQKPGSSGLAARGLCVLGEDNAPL
- protocol_details: Agonist activity at human KISS1R expressed in CHO cells assessed as increase in calcium mobilization measured at 2 secs interval for 2 mins by fluo-4 NW dye based FLIPR assay
Square brackets hold non-standard residues; d marks the D form. Peptide text beside a SMILES is read from it. * marks the point of attachment. Propanoyl(3-(4-pyridyl)) = O=C(CCc1ccncc1)*; Arg(Me) = CNC(=N)NCCC[C@H](N)C(=O)O; Hydrocinnamoyl = O=C(CCc1ccccc1)*; d4Pal = N[C@H](Cc1ccncc1)C(=O)O; Hexanoyl = CCCCCC(=O)*; azaGly = NNC(=O)O
molecules and their reported pEC50
# reply with the number alone; pEC50 is -log10 of concentration in mol/L

Give the reported pEC50 for CNC(=N)NCCC[C@H](NC(=O)[C@H](CC(C)C)NC(=O)NNC(=O)[C@H](Cc1ccccc1)NC(=O)Cc1ccccc1)C(=O)N[C@@H](Cc1c[nH]c2ccccc12)C(N)=O (system: KiSS-1 receptor (Homo sapiens, UniProt Q969F8)).
9.57

Give the reported pEC50 for CNC(=N)NCCC[C@H](NC(=O)[C@H](CC(C)C)NC(=O)NNC(=O)[C@H](Cc1ccccc1)NC(=O)c1cccnc1)C(=O)N[C@@H](Cc1c[nH]c2ccccc12)C(N)=O (system: KiSS-1 receptor (Homo sapiens, UniProt Q969F8)).
9.80

Give the reported pEC50 for CNC(=N)NCCC[C@H](NC(=O)[C@H](CC(C)C)NC(=O)NNC(=O)[C@H](Cc1ccccc1)NC(=O)[C@H](CO)NC(=O)[C@H](CC(N)=O)NC(=O)CCc1ccncc1)C(=O)N[C@@H](Cc1ccccc1)C(N)=O ({Propanoyl(3-(4-pyridyl))}-NSF[azaGly]L[Arg(Me)]F-NH2) (system: KiSS-1 receptor (Homo sapiens, UniProt Q969F8)).
8.82

Give the reported pEC50 for CNC(=N)NCCC[C@H](NC(=O)[C@H](CC(C)C)NC(=O)NNC(=O)[C@H](Cc1ccccc1)NC(=O)c1ccc[nH]1)C(=O)N[C@@H](Cc1c[nH]c2ccccc12)C(N)=O (system: KiSS-1 receptor (Homo sapiens, UniProt Q969F8)).
9.64

Give the reported pEC50 for CNC(=N)NCCC[C@H](NC(=O)[C@H](CC(C)C)NC(=O)NNC(=O)[C@H](Cc1ccccc1)NC(=O)c1ccncc1)C(=O)N[C@@H](Cc1c[nH]c2ccccc12)C(N)=O (system: KiSS-1 receptor (Homo sapiens, UniProt Q969F8)).
10.17

New cases:
Give the reported pEC50 for CNC(=N)NCCC[C@H](NC(=O)[C@H](CC(C)C)NC(=O)NNC(=O)[C@H](Cc1ccccc1)NC(=O)[C@H](CO)NC(=O)[C@H](CC(N)=O)NC(=O)CCc1ccccc1)C(=O)N[C@@H](Cc1ccccc1)C(N)=O (Hydrocinnamoyl-NSF[azaGly]L[Arg(Me)]F-NH2) (system: KiSS-1 receptor (Homo sapiens, UniProt Q969F8)).
9.77

Give the reported pEC50 for CNC(=N)NCCC[C@H](NC(=O)[C@H](CC(C)C)NC(=O)NNC(=O)[C@H](Cc1ccccc1)NC(=O)CCc1c[nH]c2ccccc12)C(=O)N[C@@H](Cc1c[nH]c2ccccc12)C(N)=O (system: KiSS-1 receptor (Homo sapiens, UniProt Q969F8)).
10.66

Give the reported pEC50 for CNC(=N)NCCC[C@H](NC(=O)[C@H](CC(C)C)NC(=O)NNC(=O)[C@H](Cc1ccccc1)NC(=O)[C@H](CO)NC(=O)[C@H](CC(N)=O)NC(=O)[C@@H](Cc1ccncc1)NC(=O)[C@H](N)Cc1ccc(O)cc1)C(=O)N[C@@H](Cc1ccccc1)C(N)=O [KISS1-305] (H-[dY][d4Pal]NSF[azaGly]L[Arg(Me)]F-NH2) (system: KiSS-1 receptor (Homo sapiens, UniProt Q969F8)).
9.57

Give the reported pEC50 for CNC(=N)NCCC[C@H](NC(=O)[C@H](CC(C)C)NC(=O)NNC(=O)[C@H](Cc1ccccc1)NC(=O)[C@H](CO)NC(=O)[C@H](CC(N)=O)NC(=O)[C@H](Cc1c[nH]c2ccccc12)NC(=O)[C@H](N)Cc1ccc(O)cc1)C(=O)N[C@@H](Cc1ccccc1)C(N)=O (H-[dY]WNSF[azaGly]L[Arg(Me)]F-NH2) (system: KiSS-1 receptor (Homo sapiens, UniProt Q969F8)).
10.24

Give the reported pEC50 for CNC(=N)NCCC[C@H](NC(=O)[C@H](CC(C)C)NC(=O)NNC(=O)[C@H](Cc1ccccc1)NC(=O)C1CCCCC1)C(=O)N[C@@H](Cc1c[nH]c2ccccc12)C(N)=O (system: KiSS-1 receptor (Homo sapiens, UniProt Q969F8)).
9.92

Give the reported pEC50 for CNC(=N)NCCC[C@H](NC(=O)[C@H](CC(C)C)NC(=O)NNC(=O)[C@H](Cc1ccccc1)NC(=O)c1ccccn1)C(=O)N[C@@H](Cc1c[nH]c2ccccc12)C(N)=O (system: KiSS-1 receptor (Homo sapiens, UniProt Q969F8)).
10.43

Give the reported pEC50 for CNC(=N)NCCC[C@H](NC(=O)[C@H](CC(C)C)NC(=O)NNC(=O)[C@H](Cc1ccccc1)NC(=O)[C@H](CO)NC(=O)[C@H](CC(N)=O)NC(=O)[C@H](Cc1c[nH]c2ccccc12)NC(C)=O)C(=O)N[C@@H](Cc1ccccc1)C(N)=O (Ac-WNSF[azaGly]L[Arg(Me)]F-NH2) (system: KiSS-1 receptor (Homo sapiens, UniProt Q969F8)).
8.68

Give the reported pEC50 for CNC(=N)NCCC[C@H](NC(=O)[C@H](CC(C)C)NC(=O)NNC(=O)[C@H](Cc1ccccc1)NC(=O)C(C)C)C(=O)N[C@@H](Cc1c[nH]c2ccccc12)C(N)=O (system: KiSS-1 receptor (Homo sapiens, UniProt Q969F8)).
10.24

Give the reported pEC50 for CCCCCC(=O)N[C@@H](Cc1ccccc1)C(=O)NNC(=O)N[C@@H](CC(C)C)C(=O)N[C@@H](CCCNC(=N)NC)C(=O)N[C@@H](Cc1ccccc1)C(N)=O (Hexanoyl-F[azaGly]L[Arg(Me)]F-NH2) (system: KiSS-1 receptor (Homo sapiens, UniProt Q969F8)).
8.85
